# Read-out: MYC, MYC (gene 4609)
# test.summary: LTEA_HepaRG_MYC: Life Technologies and Expression Analysis (LTEA) Assay for MYC using HepaRG (AID 2283518)
# applied.conditions: mRNA level, 48 h; actives raise or lower the signal
Activity calls are given as the source filed them. How the source made its calls: active means hit-call score of the fitted dose curve at least 0.9, where 1 is the maximum; inactive means score below 0.9.
Thanks in advance; please answer with one of these: 1 (yes) = active, 0 (no) = inactive

CC(=O)OCCOCCOCCOC(C)=O	0 (no)
CCOC(=O)C(C)(C)Oc1ccc(Cl)cc1	0 (no)

Read the next record carefully.
Entry `CCOc1ccc2c(c1)C(C)=CC(C)(C)N2` : call = ? 0 (no)

---

# Read-out: CD38, CD38 (gene 952)
# test.summary: BSK_SAg_CD38: BioMAP Diversity Plus: SAg Assay for CD38 Biomarker Activity (AID 2283087)
# applied.conditions: primary human HUVEC with PBMC; actives raise or lower the signal
The source made the active and inactive calls. How the source made its calls: active means hit-call score of the fitted dose curve at least 0.9, where 1 is the maximum; inactive means score below 0.9.
Thanks in advance; please answer with one of these: Y (active), N (inactive)

Entry `O=c1c(O)c(-c2ccc(O)c(O)c2)oc2cc(O)cc(O)c12` : call = ? Y

Entry `Cc1ccc(Cl)cc1` : call = ? N

Entry `CCCCCCCCCCO` : call = ? N

Entry `NS(=O)(=O)c1cc2c(cc1Cl)NCNS2(=O)=O` : call = ? N

Entry `Cc1cc(NC(=O)C(=O)O)cc(C)c1Oc1ccc(O)c2c1CCC2` : call = ? N

---

# study.system: Oxysterols receptor LXR-alpha (Homo sapiens) (UniProt Q13133)
# Sequence (Q13133 whole entry, looked up): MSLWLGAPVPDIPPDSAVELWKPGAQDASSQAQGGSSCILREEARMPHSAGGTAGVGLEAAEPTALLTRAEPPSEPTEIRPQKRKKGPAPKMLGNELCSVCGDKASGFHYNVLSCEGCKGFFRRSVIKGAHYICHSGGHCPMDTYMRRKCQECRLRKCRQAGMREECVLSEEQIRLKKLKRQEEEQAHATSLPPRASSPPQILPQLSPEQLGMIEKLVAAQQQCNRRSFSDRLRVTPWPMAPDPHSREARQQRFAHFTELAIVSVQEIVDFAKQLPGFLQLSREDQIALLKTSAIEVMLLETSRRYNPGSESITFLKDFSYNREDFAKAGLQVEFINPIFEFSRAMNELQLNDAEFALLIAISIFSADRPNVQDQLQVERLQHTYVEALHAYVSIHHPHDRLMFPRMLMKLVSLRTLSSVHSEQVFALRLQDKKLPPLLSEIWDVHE
# test.summary: ATG_LXRa_TRANS: Attagene TRANS-FACTORIAL HepG2 Assay for human Liver X Receptor alpha (LXRa) (AID 2282980)
# applied.conditions: HepG2 Attagene TRANS reporter, LXRa transactivation
Inconclusive results are not listed. Activity calls are given as the source filed them. Rule for the calls: active = hit-call score of the fitted dose curve at least 0.9, where 1 is the maximum; inconclusive = response in the unintended direction; inactive = score below 0.9.
Thanks in advance; please answer with one of these: true (1) (active), false (0) (inactive)

CCOC(=O)C(C)(C)Oc1ccc(Cl)cc1	false (0)
CC(C)(C)c1cc(O)c(C(C)(C)C)cc1O	false (0)
CCOc1ccc2c(c1)C(C)=CC(C)(C)N2	true (1)

Read the next record carefully.
Entry `C1CCC(SSC2CCCCC2)CC1` : call = ? false (0)

---

# study.system: human Peroxisome Proliferator-activated Receptor alpha (PPARa), PPARA (gene 5465) (UniProt Q07869)
# Sequence (Q07869 whole entry, looked up): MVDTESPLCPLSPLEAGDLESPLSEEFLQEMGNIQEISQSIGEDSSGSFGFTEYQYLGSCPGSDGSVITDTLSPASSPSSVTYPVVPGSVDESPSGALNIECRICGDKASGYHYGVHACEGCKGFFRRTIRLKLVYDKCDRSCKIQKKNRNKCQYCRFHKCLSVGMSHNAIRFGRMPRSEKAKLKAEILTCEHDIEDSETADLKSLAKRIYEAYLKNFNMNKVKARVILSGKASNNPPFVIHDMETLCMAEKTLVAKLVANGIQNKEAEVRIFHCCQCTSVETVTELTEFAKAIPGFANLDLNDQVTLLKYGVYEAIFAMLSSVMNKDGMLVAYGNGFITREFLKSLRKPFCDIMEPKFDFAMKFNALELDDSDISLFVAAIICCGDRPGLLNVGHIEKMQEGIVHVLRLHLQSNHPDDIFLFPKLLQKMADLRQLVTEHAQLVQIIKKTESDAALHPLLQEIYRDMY
# test.summary: ATG_PPARa_TRANS: Attagene TRANS-FACTORIAL HepG2 Assay for human Peroxisome Proliferator-activated Receptor alpha (PPARa) (AID 2283001)
Inconclusive results are not listed. Calls of active or inactive are those of the source. How the source made its calls: active means hit-call score of the fitted dose curve at least 0.9, where 1 is the maximum; inconclusive means response in the unintended direction; inactive means score below 0.9.
Thanks in advance; please answer with one of these: active, inactive

COc1cc(/C=C/C(=O)CC(=O)/C=C/c2ccc(O)c(OC)c2)ccc1O	inactive
COCCOC[C@H](CC1(C(=O)NC2CCC(C(=O)O)CC2)CCCC1)C(=O)Oc1ccc2c(c1)CCC2 (stereo not given in full)	inactive
CC(CO)OC(C)CO (stereo not given) (tested in a mixture with another compound)	inactive
CCCCOC(=O)CCCCCCCCC(=O)OCCCC	active
Cc1ccc(C(C)C)c(O)c1	inactive
CC(C)(C)c1cc(O)c(C(C)(C)C)cc1O	inactive
CCOc1ccc2c(c1)C(C)=CC(C)(C)N2	inactive
FC(F)(F)C(F)(F)C(F)(F)C(F)(F)C(F)(F)C(F)(F)CCI	inactive

Entry CC(=O)C(C)=CC1C(C)=CCCC1(C)C (stereo not given) : call = ? inactive

Entry `O=c1c(O)c(-c2ccc(O)c(O)c2)oc2cc(O)cc(O)c12` : call = ? inactive

Entry `Cc1ccc(C)c(O)c1C` : call = ? inactive

Entry `CCCCCCCCCCCCCCCC` : call = ? inactive

Entry Cc1nc(-c2ccc3c(c2)CCN(CCC2CCC(NC(=O)/C=C/c4ccc(F)cc4)CC2)CC3)no1 (stereo not given) : call = ? inactive

Entry `Cc1cccc(C)c1O` : call = ? inactive

Entry `CCCCCCCC=O` : call = ? inactive

Entry `OC[C@@H](O)[C@@H](O)[C@H](O)[C@H](O)CO` : call = ? inactive

Entry `O=c1[nH]cc(F)c(=O)[nH]1` : call = ? inactive

Entry `Cc1ccc(C)c(C)c1` : call = ? inactive

Entry `Cc1oc(-c2ccccc2)nc1CCOc1cccc2c1ccn2CCC(=O)O` : call = ? active

Entry `CCNc1cccc(C)c1` : call = ? inactive

Entry `CCCCCCCCCCC` : call = ? inactive

Entry `Clc1cc(Cl)c(Cl)cc1Cl` : call = ? inactive

Entry `Cc1c(C(=O)O)c(O)cc2c1C(=O)c1c(O)c([C@@H]3O[C@H](CO)[C@@H](O)[C@H](O)[C@H]3O)c(O)c(O)c1C2=O` : call = ? inactive

Entry `CCCCN(CCCC)CCCC` : call = ? inactive

Entry `COC(=O)c1ccc(O)cc1` : call = ? inactive

Entry `CCOC(=O)C(C)(C)Oc1ccc(Cl)cc1` : call = ? active

Entry `Oc1ccc2c(c1)OC[C@@H](N1CCC(O)(c3ccc(F)cc3)CC1)[C@H]2O` : call = ? inactive

---

# Read-out: Intercellular Adhesion Molecule 1 (ICAM1), ICAM1 (gene 3383)
# test.summary: BSK_KF3CT_ICAM1: BioMAP Diversity Plus: KF3CT Assay for Intercellular Adhesion Molecule 1 (ICAM1) Biomarker Activity (AID 2283067)
# applied.conditions: primary human keratinocytes with fibroblasts; actives raise or lower the signal
The source made the active and inactive calls. How the source made its calls: active means hit-call score of the fitted dose curve at least 0.9, where 1 is the maximum; inactive means score below 0.9.
Thanks in advance; please answer with one of these: true (1) = active, false (0) = inactive

Example results:
CCCCCCCCCCCCCO	true (1)
COc1ccc(S(=O)(=O)N2C(=O)[C@@](c3ccccc3OC)(N3C[C@H](O)C[C@H]3C(=O)N(C)C)c3cc(Cl)ccc32)c(OC)c1	false (0)
NS(=O)(=O)c1cc2c(cc1Cl)NCNS2(=O)=O	false (0)
FC(F)(F)C(F)(F)C(F)(F)C(F)(F)C(F)(F)C(F)(F)CCI	false (0)
Cc1nc(-c2ccc3c(c2)CCN(CCC2CCC(NC(=O)/C=C/c4ccc(F)cc4)CC2)CC3)no1 (configuration not stated)	false (0)
C[C@]12C=CC(=O)C=C1CC[C@@H]1[C@@H]2C(=O)C[C@@]2(C)[C@H]1CC[C@]2(O)C(=O)CO	false (0)
CC(=O)OC/C=C(\C)CCC=C(C)C	false (0)
Cc1oc(-c2ccccc2)nc1CCOc1cccc2c1ccn2CCC(=O)O	false (0)
Cc1cc(NC(=O)C(=O)O)cc(C)c1Oc1ccc(O)c2c1CCC2	false (0)
Clc1cc(Cl)c(Cl)cc1Cl	false (0)

Entry `CCOC(=O)CCC(=O)OCC` : call = ? false (0)

Entry `CC=Cc1ccc(O)c(OC)c1` : call = ? false (0)

Entry `CCCCCCCC=O` : call = ? false (0)

Entry `Cc1ccc2ncccc2c1` : call = ? false (0)

Entry `CN1CCCC1=O` : call = ? false (0)

Entry `CCCCCCCCCCCC(=O)OC` : call = ? false (0)

Entry CC(CO)OC(C)CO (configuration not stated) (tested in a mixture with another compound) : call = ? false (0)

Entry `C1CCC(SSC2CCCCC2)CC1` : call = ? false (0)

Entry `CC1=C(/C=C/C(C)=C/C=C/C(C)=C/CO)C(C)(C)CCC1` : call = ? false (0)

---

# Read-out: Monocyte Chemoattractant Protein-1 (MCP1), CCL2 (gene 6347)
# test.summary: BSK_4H_MCP1: BioMAP Diversity Plus: 4H Assay for Monocyte Chemoattractant Protein-1 (MCP1) Biomarker Activity (AID 2283018)
# applied.conditions: primary human endothelial cells (HUVEC); actives raise or lower the signal
Activity calls are given as the source filed them. The calls were made as follows: active = hit-call score of the fitted dose curve at least 0.9, where 1 is the maximum; inactive = score below 0.9.
Thanks in advance; please answer with one of these: True = active, False = inactive

Example results:
COc1ccc2c(c1)c(CC(=O)O)c(C)n2C(=O)c1ccc(Cl)cc1	False
CN1CCN(Cc2cc(-c3ccc4[nH]c(=O)oc4c3)co2)[C@@H](c2ccc(F)cc2)C1	True
Cc1ccc(C(C)C)c(O)c1	False
Cc1ccccc1Cl	False
c1cc(-c2ccncc2)ccn1	False
C=CCc1ccc(O)c(OC)c1	False
CNCc1cc(F)ccc1Oc1ccc(Cl)c(Cl)c1	True
CCCCCCCCCCCCCCCCCC(=O)O	False
CC(=O)OCCOCCOCCOC(C)=O	False
CCc1c(C(=O)NN2CCCCC2)nn(-c2ccc(Cl)cc2Cl)c1-c1ccc(Br)cc1	True

Entry `C=CCOC(=O)c1ccccc1C(=O)OCC=C` : call = ? False

Entry `FC(F)(F)C(F)(F)C(F)(F)C(F)(F)C(F)(F)C(F)(F)CCI` : call = ? False

Entry `CC1(C)NC(=O)NC1=O` : call = ? False

---

# test.summary: ATG_NRF2_ARE_CIS: Attagene CIS-FACTORIAL HepG2 Assay for human Nuclear Factor Erythroid 2 Related Factor 2 (NFR2) response to Antioxidant Response Elements (ARE) (AID 2282992)
# applied.conditions: HepG2 Attagene ARE/NRF2 reporter, transcription factor activity; actives raise or lower the signal
# Experimental: ATG_CIS is a cell-based, multiplexed-readout assay that uses HepG2, a human liver cell line, with measurements taken at 24 hours after chemical dosing in a 24-well plate.ATG_NRF2_ARE_CIS is one of 52 assay component(s) measured or calculated from the ATG_CIS assay. […] This assay endpoint, ATG_NRF2_ARE_CIS, was analyzed with bidirectional fitting relative to DMSO as the negative control and baseline of activity. […]
The source made the active and inactive calls. Rule for the calls: active = hit-call score of the fitted dose curve at least 0.9, where 1 is the maximum; inactive = score below 0.9.
Thanks in advance; please answer with one of these: active, inactive

Example results:
O=c1c(O)c(-c2ccc(O)c(O)c2)oc2cc(O)cc(O)c12	active
O=C(O)CCCCC(=O)O	inactive
NC(=O)Cn1c(=O)cc(CCN2CCN(c3nccc4sccc34)CC2)c2ccc(F)cc21	active

Entry `Oc1ccc2c(c1)OC[C@@H](N1CCC(O)(c3ccc(F)cc3)CC1)[C@H]2O` : call = ? active

Entry `Cc1ccc(N(C)C)cc1` : call = ? inactive

Entry `Cc1c(C(=O)O)c(O)cc2c1C(=O)c1c(O)c([C@@H]3O[C@H](CO)[C@@H](O)[C@H](O)[C@H]3O)c(O)c(O)c1C2=O` : call = ? inactive
